# System: A549-ACTB-RAB5A
# assay_details: phenotypically active (imaging signature differs from DMSO and reproducible) at any of 0.3-9 uM (binary (1 = active, 0 = inactive)); higher = active
# recorded_conditions: treatment time: 24 h
Possible outcomes: 1.0 = active, 0.0 = inactive

[[record]]
compound = "NC12CC3CC(CC(C3)C1)C2 [amantadine]"
discrete_label = 0.0

[[record]]
compound = "COc1cc2ncnc(Oc3cccc(NC(=O)Nc4cc(C(C)(C)C(F)(F)F)on4)c3)c2cc1OC"
discrete_label = 0.0

[[record]]
compound = "C=C[C@H]1[C@H](O[C@@H]2O[C@H](CO)[C@@H](O)[C@H](O)[C@H]2O)OC=C2C(=O)NCC[C@H]21 [Bakankosine]"
discrete_label = 0.0

[[record]]
compound = "NS(=O)(=O)C#Cc1ccccc1 [pifithrin-mu]"
discrete_label = 0.0

[[record]]
compound = "NCCC(=O)NCCc1c[nH]cn1 [Carcinine]"
discrete_label = 0.0

[[record]]
compound = "CCCN(CCC)CCc1cccc2c1CC(=O)N2 [ropinirole]"
discrete_label = 0.0

[[record]]
compound = "CC1(C)CCC(C)(C)c2cc(C(O)C(=O)Nc3ccc(C(=O)O)cc3F)ccc21 (centres undefined)"
discrete_label = 0.0

[[record]]
compound = "C[C@H]1[C@H](C)CC[C@]2(C(=O)O)CC[C@]3(C)C(=CC[C@@H]4[C@@]5(C)CC[C@H](O)C(C)(C)[C@@H]5CC[C@]43C)[C@H]12 [Ursolic acid]"
discrete_label = 0.0

[[record]]
compound = "NC(=O)Nc1sc(-c2ccc(F)cc2)cc1C(N)=O"
discrete_label = 1.0


###

List of lowest phenotypically active concentration values.
# Test system: A549-ACTB-RAB5A
# assay_details: lowest phenotypically active concentration; higher = less potent
# recorded_conditions: treatment time: 24 h
Counter-ions that a name gives are not always drawn.
measurement_kind: lowest phenotypically active concentration (µM)

[[record]]
compound = "O=C([C@H](Cc1cccc(C(F)(F)F)c1)NS(=O)(=O)c1cc(F)c2c(c1)CCNC2)N1CCCC1 [(S)-PFI 2 hydrochloride]"
relational_operator = "="
observed_value = 9

[[record]]
compound = "CCCCc1oc2ccc(NS(C)(=O)=O)cc2c1C(=O)c1ccc(OCCCN(CCCC)CCCC)cc1 [dronedarone]"
relational_operator = "="
observed_value = 3

[[record]]
compound = "COc1cc2c(cc1OCCCN1CCCC1)N=C(N)C21CCC1"
relational_operator = "="
observed_value = 9

[[record]]
compound = "CCC(=O)N1CCN(c2ccc(-n3c(=O)ccc4cnc5ccc(-c6cnc7ccccc7c6)cc5c43)cc2C(F)(F)F)CC1 [Torin 1]"
relational_operator = "≤"
observed_value = 0.3


###

# System: WPMY1-ACTB-RAB5A
# assay_details: lowest phenotypically active concentration; higher = less potent
# recorded_conditions: treatment time: 24 h
measurement_kind: lowest phenotypically active concentration (µM)

[[record]]
molecule = "CC(CN1c2ccccc2Sc2ccccc21)N(C)C (stereo not given) [promethazine]"
relational_operator = "="
observed_value = 9

[[record]]
molecule = "Cc1ccc(S(=O)(=O)c2ccc([N+](=O)[O-])o2)cc1"
relational_operator = "="
observed_value = 3

[[record]]
molecule = "Clc1ccc(C2(c3ccc(-c4cn[nH]c4)cc3)CCNCC2)cc1"
relational_operator = "≤"
observed_value = 0.3

[[record]]
molecule = "CNC(=O)Nc1ccc(-c2nc(N3CC4CCC(C3)O4)c3cnn(C4CCC5(CC4)OCCO5)c3n2)cc1"
relational_operator = "≤"
observed_value = 0.3

[[record]]
molecule = "Cc1cc(Nc2nc(N[C@@H](C)c3ncc(F)cn3)ncc2Cl)n[nH]1"
relational_operator = "="
observed_value = 3


###

# Tested on: A549-ACTB-RAB5A
# assay_details: phenotypically active (imaging signature differs from DMSO and reproducible) at any of 0.3-9 uM (binary (1 = active, 0 = inactive)); higher = active
# recorded_conditions: treatment time: 24 h
Where a name gives a salt, the structure may show the parent alone.
Possible outcomes: active, inactive

[[record]]
compound = "CSc1ccc2c(c1)N(CCC1CCCCN1C)c1ccccc1S2 (stereo not drawn)"
discrete_label = "active"

[[record]]
compound = "CN(C)c1nc(N(C)C)nc(N(C)C)n1"
discrete_label = "inactive"

[[record]]
compound = "O=C(O)c1c(Sc2ccccc2)c2cc(Cl)ccc2n1Cc1ccc(Cl)cc1"
discrete_label = "inactive"

[[record]]
compound = "Cc1c[nH]c2nccc(Oc3c(F)cc(Nc4cc(Cl)nc(N)n4)cc3F)c12"
discrete_label = "active"

[[record]]
compound = "C[C@@H](Oc1cc(-n2cnc3ccc(CN4CCN(C)CC4)cc32)sc1C(N)=O)c1ccccc1C(F)(F)F"
discrete_label = "active"

[[record]]
compound = "C[C@]12CC[C@@H]3c4ccc(O)cc4CC[C@H]3[C@@H]1CCC2=O"
discrete_label = "inactive"

[[record]]
compound = "COc1ccc2c3c([nH]c2c1)[C@H]1C[C@H]2[C@H](C[C@@H](O)[C@H](OC)[C@H]2C(=O)O)CN1CC3 [Reserpinic acid hydrochloride]"
discrete_label = "inactive"

[[record]]
compound = "CC[C@H](CO)Nc1nc(Nc2cccc(-c3ccccn3)c2)c2ncn(C(C)C)c2n1 [(R)-DRF053 dihydrochloride]"
discrete_label = "active"


###

# System: WPMY1-GM130-SQSTM1
# assay_details: phenotypically active (imaging signature differs from DMSO and reproducible) at any of 0.3-9 uM (binary (1 = active, 0 = inactive)); higher = active
# recorded_conditions: treatment time: 24 h
Possible outcomes: 1 (active), -1 (inactive)

[[record]]
smiles_structure = "C[C@H]1[C@H]2CC[C@H]3[C@@H]4CC=C5C[C@@H](N(C)C)CC[C@]5(C)[C@H]4CC[C@]23CN1C"
discrete_label = 1

[[record]]
smiles_structure = "Nc1cc(-c2ccncc2)c[nH]c1=O"
discrete_label = -1

[[record]]
smiles_structure = "CCCc1nc2c(C)cc(-c3nc4ccccc4n3C)cc2n1Cc1ccc(-c2ccccc2C(=O)O)cc1"
discrete_label = -1

[[record]]
smiles_structure = "O=c1cc(N2CCOCC2)oc2c1ccc1ccccc12"
discrete_label = -1

[[record]]
smiles_structure = "O=c1[nH]cnc2[nH]ncc12"
discrete_label = -1

[[record]]
smiles_structure = "c1ccc(-c2cnn3cc(-c4ccc(OCCN5CCOCC5)cc4)cnc23)cc1"
discrete_label = -1


###

# Test system: HepG2-TUBA1B-RELA
# assay_details: phenotypically active (imaging signature differs from DMSO and reproducible) at any of 0.3-9 uM (binary (1 = active, 0 = inactive)); higher = active
# recorded_conditions: treatment time: 24 h
Structures can show the parent of a compound that is named as a salt.
Possible outcomes: 1 (active), -1 (inactive)

[[record]]
compound = "O=S(=O)(NCCCCCCc1ccccc1)c1cccc2c(Cl)cccc12"
target_under_test = "HepG2-TUBA1B-RELA"
discrete_label = 1

[[record]]
compound = "COc1cc(C#N)ccc1S(=O)(=O)Nc1ccc2c(c1)cc(C)c(=O)n2C"
target_under_test = "HepG2-TUBA1B-RELA"
discrete_label = -1

[[record]]
compound = "COc1c(C)cnc(Cn2cc(C#CCC(C)(C)O)c3c(Cl)nc(N)nc32)c1C"
target_under_test = "HepG2-TUBA1B-RELA"
discrete_label = 1

[[record]]
compound = "COc1cc(C)c(Sc2cnc(NC(=O)c3ccc(CNC(C)C(C)(C)C)cc3)s2)cc1C(=O)N1CCN(C(C)=O)CC1 (stereo not drawn)"
target_under_test = "HepG2-TUBA1B-RELA"
discrete_label = 1

[[record]]
compound = "COc1ccc(-c2noc(CSc3nnc(C)n3-c3ccc(OC)cc3)n2)cc1"
target_under_test = "HepG2-TUBA1B-RELA"
discrete_label = -1

[[record]]
compound = "Nc1nc(Cl)nc2c1ncn2[C@@H]1O[C@H](CO)[C@@H](O)[C@@H]1F [clofarabine]"
target_under_test = "HepG2-TUBA1B-RELA"
discrete_label = 1

[[record]]
compound = "O=C(OC12CC3CC(CC(C3)C1)C2)c1ccc(NCc2cc(O)ccc2O)cc1 [Adaphostin]"
target_under_test = "HepG2-TUBA1B-RELA"
discrete_label = 1

[[record]]
compound = "O=C(Nc1cccnc1)N1CCC(Cc2cccc(Oc3ccc(C(F)(F)F)cn3)c2)CC1"
target_under_test = "HepG2-TUBA1B-RELA"
discrete_label = 1

[[record]]
compound = "N#Cc1ccc2ncnc(NCCc3ccccc3)c2c1 [Senexin A]"
target_under_test = "HepG2-TUBA1B-RELA"
discrete_label = -1

[[record]]
compound = "CC(C)c1cc(-c2n[nH]c(=O)n2-c2ccc3c(ccn3C)c2)c(O)cc1O [ganetespib]"
target_under_test = "HepG2-TUBA1B-RELA"
discrete_label = 1

[[record]]
compound = "NNCCc1ccccc1 [phenelzine]"
target_under_test = "HepG2-TUBA1B-RELA"
discrete_label = -1

[[record]]
compound = "COc1cc2c(cc1O)CC[C@@H]1[C@@H]2CC[C@]2(C)[C@@H](O)CC[C@@H]12 [2-methoxyestradiol]"
target_under_test = "HepG2-TUBA1B-RELA"
discrete_label = 1

[[record]]
compound = "COc1cc(C[C@H]2C(=O)OC[C@@H]2Cc2ccc(OC)c(OC)c2)ccc1O [Arctigenin]"
target_under_test = "HepG2-TUBA1B-RELA"
discrete_label = 1

[[record]]
compound = "CCCC(=O)O[C@]1(C(=O)COC(C)=O)CC[C@H]2[C@@H]3C[C@H](F)C4=CC(=O)C=C[C@]4(C)[C@@]3(F)[C@@H](O)C[C@@]21C [difluprednate]"
target_under_test = "HepG2-TUBA1B-RELA"
discrete_label = -1

[[record]]
compound = "COc1ccccc1C(=O)Nc1cc2c(cc1N1CCCC1)n(C)c(=O)n2C"
target_under_test = "HepG2-TUBA1B-RELA"
discrete_label = -1

[[record]]
compound = "Oc1cccc(-c2nc(N3CCOCC3)c3oc4ncccc4c3n2)c1 [PI 103 hydrochloride]"
target_under_test = "HepG2-TUBA1B-RELA"
discrete_label = 1

[[record]]
compound = "Nc1nccc(-c2ccc3noc(-c4ccc(Cl)cc4)c3c2)n1 [PIM-1 Inhibitor 2]"
target_under_test = "HepG2-TUBA1B-RELA"
discrete_label = -1

[[record]]
compound = "Cc1cccc(Nc2cc(Cl)nc(SCC(=O)O)n2)c1C"
target_under_test = "HepG2-TUBA1B-RELA"
discrete_label = -1

[[record]]
compound = "Cc1ccc(S(=O)(=O)n2c(N)nc3ccccc32)cc1"
target_under_test = "HepG2-TUBA1B-RELA"
discrete_label = -1

[[record]]
compound = "COc1cc(-c2cn(C)c(=O)c3cnccc23)c(OC)cc1CN(C)C"
target_under_test = "HepG2-TUBA1B-RELA"
discrete_label = 1

[[record]]
compound = "Cn1cnc2c(NCc3ccccc3)nc(NCCO)nc21 [Olomoucine]"
target_under_test = "HepG2-TUBA1B-RELA"
discrete_label = -1

[[record]]
compound = "COc1cc2ncnc(Nc3cccc(Br)c3)c2cc1OC"
target_under_test = "HepG2-TUBA1B-RELA"
discrete_label = 1

[[record]]
compound = "COc1cc2c(cc1OC)C(=O)C(CC1CCN(Cc3ccccc3)CC1)C2 (stereo not drawn) [donepezil]"
target_under_test = "HepG2-TUBA1B-RELA"
discrete_label = -1

[[record]]
compound = "c1cc(-c2cc(C3CCNCC3)[nH]n2)ccn1"
target_under_test = "HepG2-TUBA1B-RELA"
discrete_label = -1

[[record]]
compound = "CCc1cncnc1N1CCN(Cc2nc3cc(C(F)(F)F)ccc3[nH]2)CC1"
target_under_test = "HepG2-TUBA1B-RELA"
discrete_label = 1

[[record]]
compound = "O=c1cc(N2CCOCC2)oc2c(-c3cccc4c3sc3ccccc34)cccc12"
target_under_test = "HepG2-TUBA1B-RELA"
discrete_label = 1

[[record]]
compound = "COc1c(O[C@@H]2O[C@H](CO)[C@@H](O)[C@H](O)[C@H]2O)cc2c(c1OC)-c1ccc(SC)c(=O)cc1[C@@H](NC(C)=O)CC2 [Thiocolchicoside]"
target_under_test = "HepG2-TUBA1B-RELA"
discrete_label = -1

[[record]]
compound = "CC(C)CCN1c2nc(Nc3cc(F)c(O)c(F)c3)ncc2N(C)C(=O)C1C (stereo not drawn)"
target_under_test = "HepG2-TUBA1B-RELA"
discrete_label = 1

[[record]]
compound = "CN(C)CCOC(=O)C(c1ccccc1)C1(O)CCCC1 (stereo not drawn) [cyclopentolate]"
target_under_test = "HepG2-TUBA1B-RELA"
discrete_label = -1

[[record]]
compound = "CNC(=O)COC(=O)NCCC1CCN(c2cccc(C)n2)CC1"
target_under_test = "HepG2-TUBA1B-RELA"
discrete_label = -1

[[record]]
compound = "O=C(NCCCNc1nc(Nc2cccc(NC(=O)N3CCCC3)c2)ncc1I)c1cccs1"
target_under_test = "HepG2-TUBA1B-RELA"
discrete_label = 1

[[record]]
compound = "N#C/C(=C/c1ccc(O)c(O)c1)C(=O)NCCCCc1ccccc1"
target_under_test = "HepG2-TUBA1B-RELA"
discrete_label = -1

[[record]]
compound = "NC(=O)c1ncn([C@@H]2O[C@H](CO)[C@@H](O)[C@H]2O)c1N"
target_under_test = "HepG2-TUBA1B-RELA"
discrete_label = -1

[[record]]
compound = "NCC[C@H](O)C(=O)N[C@H]1C[C@@H](N)[C@H](O[C@H]2O[C@H](CN)[C@@H](O)[C@H](O)[C@H]2O)[C@@H](O)[C@@H]1O[C@H]1O[C@H](CO)[C@@H](O)[C@H](N)[C@H]1O [Amikacin hydrate]"
target_under_test = "HepG2-TUBA1B-RELA"
discrete_label = -1

[[record]]
compound = "CCN(CC)c1ccc(/C=N/NC(=O)c2ccncc2)c(O)c1"
target_under_test = "HepG2-TUBA1B-RELA"
discrete_label = 1

[[record]]
compound = "C[n+]1cccc(C(=O)O)c1 [Trigonelline hydrochloride]"
target_under_test = "HepG2-TUBA1B-RELA"
discrete_label = -1

[[record]]
compound = "Cc1cccc(-c2n[nH]cc2-c2ccc(F)c(-c3cnn(CCO)c3)c2)n1"
target_under_test = "HepG2-TUBA1B-RELA"
discrete_label = -1

[[record]]
compound = "O=C(O)c1ccc(O)c2ncccc12"
target_under_test = "HepG2-TUBA1B-RELA"
discrete_label = -1

